Target: T1, nSR100 (Mus musculus, UniProt Q8BKA3)
T1 construct: host or cells: mouse N2A cells
T1 sequence (Q8BKA3 1-608): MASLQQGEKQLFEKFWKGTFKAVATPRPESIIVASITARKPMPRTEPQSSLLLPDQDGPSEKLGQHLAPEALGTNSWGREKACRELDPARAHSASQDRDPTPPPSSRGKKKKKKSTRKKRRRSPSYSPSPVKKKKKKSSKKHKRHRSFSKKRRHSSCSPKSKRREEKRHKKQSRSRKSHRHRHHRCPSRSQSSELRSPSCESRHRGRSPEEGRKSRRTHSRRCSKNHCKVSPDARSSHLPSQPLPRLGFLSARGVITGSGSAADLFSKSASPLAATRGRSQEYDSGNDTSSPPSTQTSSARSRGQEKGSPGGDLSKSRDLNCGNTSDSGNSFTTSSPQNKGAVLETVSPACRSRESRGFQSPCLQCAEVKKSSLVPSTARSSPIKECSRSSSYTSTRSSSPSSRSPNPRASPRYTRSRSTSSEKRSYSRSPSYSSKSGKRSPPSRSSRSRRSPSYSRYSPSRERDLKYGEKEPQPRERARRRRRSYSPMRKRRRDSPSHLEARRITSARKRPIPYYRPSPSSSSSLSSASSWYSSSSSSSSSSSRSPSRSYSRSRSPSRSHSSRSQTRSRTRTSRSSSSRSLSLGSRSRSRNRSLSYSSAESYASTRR
Assay: AP-MS nSR100 interaction partners from mouse N2A cells (Table 5)
Format: binding
Conditions: bait Srrm4
measuredParameter: MaxP (maximal SAINT score)
Please reply with the number alone, leaving off any unit.

1. Rbmx2 (protein, UniProt Q8R0F5 1-326, looked up) RNA-binding motif protein, …: MNPLTKVKLINELNEREVQLGVAEKVSWHSEYKHSAWIFVGGLPYELTEGDIICVFSQYGEIVNINLVRDKKTGKSKGFCFLCYEDQRSTVLAVDNFNGIKIKGRTIRVDHVSNYRAPQESEDVDDVTRELQEKGCGVKTPPSSPPEVSEDEDAKLTKKHKKDKKEKKKRKKEKTEGQAQAEQPSCSRSATVKEKKDERASRKHSSKTSERAQKSEHRESKKSHSGSPDGRSSYHARAEDPECKARKEKPKHEHKSASRREAEEKSRERERGRSSGTHSGRHRGHSDGRSHRSRSRSRSPDKSHRHKKYRHSRERDSYHGSDRRHH	0.98
2. Pgam5 (protein, UniProt Q8BX10 1-288, looked up) Serine/threonine-protein …: MAFRQALQLAACGLAGGSAAVLFSAVAVGKPRGGGDADTRATEPPAWTGARAGRGVWDTNWDRREPLSLINLKKRNVESGEDELTSRLDHYKAKATRHIFLIRHSQYHVDGSLEKDRTLTPLGREQAELTGLRLASLGLKFNKIVHSSMTRAVETTDIISKHLPGVSRVSTDLLREGAPIEPDPPVSHWKPEAVQYYEDGARIEAAFRNYIHRADARQEEDSYEIFICHANVIRYIVCRALQFPPEGWLRLSLNNGSITHLVIRPNGRVALRTLGDTGFMPPDKITRS	1

Query molecule follows.
QUERY: Please give the measured MaxP (maximal SAINT score) for this molecule: Rab5c (protein, UniProt P35278 1-216, looked up) Ras-related protein Rab-5C: MAGRGGAARPNGPAAGNKICQFKLVLLGESAVGKSSLVLRFVKGQFHEYQESTIGAAFLTQTVCLDDTTVKFEIWDTAGQERYHSLAPMYYRGAQAAIVVYDITNTDTFARAKNWVKELQRQASPNIVIALAGNKADLASKRAVEFQEAQAYADDNSLLFMETSAKTAMNVNEIFMAIAKKLPKNEPQNAAGAPGRTRGVDLQESNPASRSQCCSN
RESULT: 0.99
